# Protocol summary: chemical genetic growth profiling, strain panel (AID 1159580);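 further: tested at 20 µM; growth read once vehicle control cultures reached saturation at 30 °C; 1 = growth at the plate median or of vehicle wells; lower values mean less growth of the strain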
# Condition description: S. cerevisiae deletion strains, growth OD, locus YML124C, strain tub3, active compounds read low
Hit rate of the full screen: of about 5,500 compounds, about 2,000 (36%) were called active. Not shown: some 18% with an inconclusive outcome. This is one part of the list.
Measured metric: normalized growth
Just the number.

Here's what some known entries look like.
>  <Compound>
CC(N)C(=O)OC(C)(C)Cc1ccc(Cl)cc1 (stereo not given)

>  <normalized growth>
0.985

$$$$
>  <Compound>
CC1CC2C3CC(F)C4=CC(=O)C=CC4(C)C3(F)C(O)CC2(C)C1(O)C(=O)CO (stereo not given)

>  <normalized growth>
1.02

$$$$
>  <Compound>
CCC(=O)O[C@H]1CCC2C3CCC4=CC(=O)CC[C@]4(C)C3CC[C@@]21C (stereo not given in full)

>  <normalized growth>
0.972

$$$$
>  <Compound>
COc1ccc(OC)c(C(O)C(C)N)c1 (stereo not given)

>  <normalized growth>
0.993

$$$$

Q. I'd like to know its normalized growth. The compound in question is "COP(=O)(OC)OC=C(Cl)Cl"
A. 0.992

----------
# Protocol summary: chemical genetic growth profiling, strain panel (AID 1159580);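 further: tested at 20 µM; growth read once vehicle control cultures reached saturation at 30 °C; 1 = growth at the plate median or of vehicle wells; lower values mean less growth of the strain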
# Condition description: S. cerevisiae deletion strains, growth OD, locus YOR061W, strain CKA2, active compounds read low
Screen size: about 5,500 compounds; about 2,000 (36%) were called active. Another 18% or so got no clear call; they are omitted. The list shows a part of the results.
Measured metric: normalized growth
Just the number.

>  <Compound>
c1cncc(C2CCCCN2)c1 (centres undefined)

>  <normalized growth>
1.01

$$$$
>  <Compound>
CC(=O)NC1SCCC1=O (centres undefined)

>  <normalized growth>
1.01

$$$$
>  <Compound>
COc1ccc2c(c1OC)C(=O)O[C@H]2[C@H]1c2cc3c(cc2CCN1C)OCO3

>  <normalized growth>
1

$$$$

Here is another compound to look at.
Q. I'd like to know its normalized growth. The compound in question is NCC1CCC(C(=O)O)CC1 (centres undefined)
A. 1

----------
# Protocol summary: chemical genetic growth profiling, strain panel (AID 1159580);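 further: tested at 20 µM; growth read once vehicle control cultures reached saturation at 30 °C; 1 = growth at the plate median or of vehicle wells; lower values mean less growth of the strain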
# Condition description: S. cerevisiae deletion strains, growth OD, locus YMR263W, strain SAP30
Out of some 5,500 compounds screened, about 2,000 (36%) were called active. Roughly 18% stayed inconclusive and do not appear here. No stated cut-off is given here; in the data, active means normalized growth mostly below about 0.91 (no sharp cut-off); inconclusive means no clear call, values can overlap the other calls; inactive means mostly above about 0.92. The list shows a part of the results.
Please answer using one outcome listed in active, inactive

>  <Compound>
CCC(C)C(=O)O[C@H]1[C@H](O)C2C(CN3CC(C)CCC3[C@@]2(C)O)C2C[C@]34O[C@]5(O)C(OC(=O)C(C)(O)C(C)O)CC[C@@]3(C)C5C(OC(C)=O)[C@@H](OC(C)=O)C4[C@@]21O (stereo partly specified)

>  <Label value>
inactive

$$$$

Q. State the result this test recorded for "COc1ccc2c(c1)OCc1c-2oc2cc(OC)ccc12" .
A. inactive

Q. State the result this test recorded for "COc1ccc2c(c1)O[C@@H]1COc3cc(OC)c(OC)cc3[C@@H]1C2=O" .
A. inactive

Q. State the result this test recorded for "CCCS(=O)(=O)c1c(C)c(C)n(Cc2ccccc2)c1N" .
A. inactive

Q. State the result this test recorded for "CCOC(=O)c1cc(C)nc(Sc2ccccc2)c1C#N" .
A. active

Q. State the result this test recorded for "COc1cc2c(cc1OC)[C@@H]1C(=O)c3ccc(OC)c(CC=C(C)C)c3O[C@@H]1CO2" .
A. inactive
